Overview of recorded z-score of subpopulation abundance for various compounds
# Tested on: Saccharomyces cerevisiae BY4741 SeMeCo community
# assaySummary: z-score of subpopulation abundance vs DMSO median, subpopulation auxotrophic for HUM; higher = larger share of this subpopulation than in DMSO controls
# runParameters: 10 µM; 24 h; SM minimal medium; subpopulation (auxotrophy): HUM
Where a name gives a salt, the structure may show the parent alone.
readout: z-score of subpopulation abundance

>>> quantitativeresult("Cc1ncc([N+](=O)[O-])n1CC(C)O (stereo not drawn)")
0.55
>>> quantitativeresult("C[C@H](NCc1ccc(OCc2cccc(F)c2)cc1)C(N)=O [Safinamide Mesylate]")
0.75
>>> quantitativeresult("CCCN[C@H]1CCc2nc(N)sc2C1 [Pramipexole dihydrochloride]")
0.52
>>> quantitativeresult("NC(CO)(CO)CO")
-0.08
>>> quantitativeresult("C[C@H]1COc2c(C3(N)CC3)c(F)cc3c(=O)c(C(=O)O)cn1c23 [Pazufloxacin mesylate]")
-0.08
>>> quantitativeresult("Cc1nnc(SCC2=C(C(=O)O)N3C(=O)[C@@H](NC(=O)Cn4cc(Cl)c(=O)c(Cl)c4)[C@H]3SC2)s1")
0.05
>>> quantitativeresult("CCN1CCN(C(=O)N[C@@H](C(=O)N[C@@H]2C(=O)N3C(C(=O)O)=C(CSc4nnnn4C)CS[C@H]23)c2ccc(O)cc2)C(=O)C1=O")
-0.49
>>> quantitativeresult("CCCC(=O)OCOC(=O)C1=C(C)NC(C)=C(C(=O)OC)C1c1cccc(Cl)c1Cl (stereo not drawn) [Clevidipine Butyrate]")
-4.83

----------
# Tested on: Saccharomyces cerevisiae BY4741 SeMeCo community
# assaySummary: z-score of subpopulation abundance vs DMSO median, subpopulation auxotrophic for U; higher = larger share of this subpopulation than in DMSO controls
# runParameters: 10 µM; 24 h; SM minimal medium; subpopulation (auxotrophy): U
Structures can show the parent of a compound that is named as a salt.
readout: z-score of subpopulation abundance

>>> quantitativeresult("CO/N=C(\\C(=O)N[C@@H]1C(=O)N2C(C(=O)O)=C(CSc3nnnn3C)CS[C@H]12)c1csc(N)n1 [Cefmenoxime hydrochloride]")
-0.34
>>> quantitativeresult("N#Cc1ccc2[nH]cc(CCCCN3CCN(c4ccc5oc(C(N)=O)cc5c4)CC3)c2c1")
-0.66
>>> quantitativeresult("CC(N)C12CC3CC(CC(C3)C1)C2 (centres undefined)")
0.97
>>> quantitativeresult("CCN(CC)C(=O)[C@@]1(c2ccccc2)C[C@H]1CN [Levomilnacipran Hydrochloride]")
1.27

----------
# System: Saccharomyces cerevisiae BY4741 SeMeCo community
# assaySummary: z-score of subpopulation abundance vs DMSO median, subpopulation auxotrophic for HL; higher = larger share of this subpopulation than in DMSO controls
# runParameters: 10 µM; 24 h; SM minimal medium; subpopulation (auxotrophy): HL
readout: z-score of subpopulation abundance

>>> quantitativeresult("CCN(CC)CC#CCOC(=O)C(O)(c1ccccc1)C1CCCCC1 (stereo not drawn) [Oxybutynin]")
-0.47
>>> quantitativeresult("COc1ccc(-c2nc3cc(C4=NNC(=O)CC4C)ccc3[nH]2)cc1 (stereo not drawn) [Pimobendan]")
0.79
>>> quantitativeresult("CC(C)[C@H]1CC[C@H](C(=O)N[C@H](Cc2ccccc2)C(=O)O)CC1 [Nateglinide]")
-0.02
>>> quantitativeresult("COc1cc(C(C)=O)ccc1OCCCN1CCC(c2noc3cc(F)ccc23)CC1 [Iloperidone]")
0.55
>>> quantitativeresult("CC(C(=O)O)c1ccc2c(c1)Cc1cccnc1O2 (stereo not drawn) [Pranoprofen]")
-0.22
>>> quantitativeresult("CSCC1CN(/N=C/c2ccc([N+](=O)[O-])o2)C(=O)O1 (stereo not drawn) [Nifuratel]")
4.21
>>> quantitativeresult("CC1=C(C(=O)OCCN(Cc2ccccc2)c2ccccc2)C(c2cccc([N+](=O)[O-])c2)C(P2(=O)OCC(C)(C)CO2)=C(C)N1 (stereo not drawn) [Efonidipine]")
0.79
>>> quantitativeresult("CC1(C)CC[C@]2(C(=O)O)CC[C@]3(C)C(=CC[C@@H]4[C@@]5(C)CC[C@H](O)C(C)(C)[C@@H]5CC[C@]43C)[C@@H]2C1 [Oleanolic Acid]")
0.59
